- ASSAY SYSTEM: Human MCT3 (Homo sapiens, UniProt O95907)
- Sequence (O95907 whole entry): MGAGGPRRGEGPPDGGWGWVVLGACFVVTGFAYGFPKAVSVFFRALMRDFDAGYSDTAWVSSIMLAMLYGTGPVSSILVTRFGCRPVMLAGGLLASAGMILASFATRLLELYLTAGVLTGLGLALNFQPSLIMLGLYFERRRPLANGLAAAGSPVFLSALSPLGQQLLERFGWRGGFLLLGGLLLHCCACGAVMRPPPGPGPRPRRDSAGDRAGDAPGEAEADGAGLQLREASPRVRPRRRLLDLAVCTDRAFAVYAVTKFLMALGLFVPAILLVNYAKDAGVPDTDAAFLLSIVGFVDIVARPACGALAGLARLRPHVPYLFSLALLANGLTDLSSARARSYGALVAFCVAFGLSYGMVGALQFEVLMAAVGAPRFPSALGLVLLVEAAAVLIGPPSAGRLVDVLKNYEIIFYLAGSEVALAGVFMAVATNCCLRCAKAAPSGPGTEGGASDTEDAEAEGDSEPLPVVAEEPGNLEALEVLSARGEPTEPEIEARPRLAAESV
- Sequence (P26453 23-388 partner): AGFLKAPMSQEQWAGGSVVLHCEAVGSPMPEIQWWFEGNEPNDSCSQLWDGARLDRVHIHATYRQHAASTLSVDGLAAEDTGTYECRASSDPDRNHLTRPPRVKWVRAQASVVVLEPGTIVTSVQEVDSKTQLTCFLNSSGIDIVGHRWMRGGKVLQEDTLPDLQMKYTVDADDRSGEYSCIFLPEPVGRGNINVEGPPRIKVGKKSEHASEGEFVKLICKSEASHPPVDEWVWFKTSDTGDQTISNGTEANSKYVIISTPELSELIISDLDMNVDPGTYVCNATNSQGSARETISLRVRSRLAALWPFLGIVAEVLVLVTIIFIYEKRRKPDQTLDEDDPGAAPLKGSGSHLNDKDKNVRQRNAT
- EXPERIMENT DESCRIPTION: Inhibition of 3BP import (rescue of viability) in MCT3-overexpressing INS-1 cells
- SETUP CONDITIONS: INS-1 cells over-expressing human MCT3, rescue from LC100 3BP
Readings of IC50 for the listed compounds

# COMPOUND, IC50
data = [
    ("CC(C)OC(=O)Nc1ccc(-c2cnc([C@H]3CC[C@H](NC(=O)OC(C)C)CC3)s2)c(S(=O)(=O)NC(C)(C)C)c1 [Compound 67A]", "10 to 33 µM"),
    ("O=C(Nc1ccccc1C(=O)O)c1cc(S(=O)(=O)c2ccccc2)ccc1Cl [BAY8002]", "> 33 µM"),
]

* * *

- ASSAY SYSTEM: human MCT1 (Homo sapiens, UniProt P53985)
- Construct: host or cells: MDCK-II (canine) cells, transient co-transfection
- EXPERIMENT DESCRIPTION: MCT1 Transport Inhibition Assay (TPGA uptake, LC-MS/MS)
- Type: cell-based
- SETUP CONDITIONS: MDCK-II cells overexpressing human MCT1, TPGA transport; read-out: BioIVT MCT1 Transporter IC50
OUTCOME MEASURE: IC50

# MOLECULE, OUTCOME MEASURE, TEST RESULT
measured = [
    ("CC(C)OC(=O)Nc1ccc(-c2cnc([C@H]3CC[C@@H](NC(=O)OC(C)C)CC3)s2)c(S(=O)(=O)NC(C)(C)C)c1 [Compound 67B]", "IC50", "1000 to 5000 nM"),
    ("CC(C)OC(=O)Nc1ccc(-c2cnc([C@H]3CC[C@H](NC(=O)OC(C)C)CC3)s2)c(S(=O)(=O)NC(C)(C)C)c1 [Compound 67A]", "IC50", "50 to 150 nM"),
    ("CC(C)OC(=O)N[C@H]1CC[C@H](c2ncc(-c3ccc(NC(=O)NCc4ccccc4)cc3S(=O)(=O)NC(C)(C)C)s2)CC1 [Compound 62B]", "IC50", "150 to 1000 nM"),
    ("O=C(Nc1ccccc1C(=O)O)c1cc(S(=O)(=O)c2ccccc2)ccc1Cl", "IC50", "50 to 150 nM"),
]

* * *

Readings of IC50 for the listed compounds
- ASSAY SYSTEM: human MCT1 (Homo sapiens, UniProt P53985)
- Construct: expressed in transfected cells
- EXPERIMENT DESCRIPTION: Inhibition of 3BP import (rescue of viability) in MCT1-overexpressing INS-1 cells
- Format: cell-based
- SETUP CONDITIONS: INS-1 cells over-expressing human MCT1, rescue from LC100 3BP

# COMPOUND, IC50
records = [
    ("CC(C)OC(=O)Nc1ccc(-c2cnc([C@H]3CC[C@H](NC(=O)OC(C)C)CC3)s2)c(S(=O)(=O)NC(C)(C)C)c1 [Compound 67A]", "0.1 to 1 µM"),
    ("O=C(Nc1ccccc1C(=O)O)c1cc(S(=O)(=O)c2ccccc2)ccc1Cl", "1 to 10 µM"),
]

* * *

- ASSAY SYSTEM: MCT1/BSG complex (Homo sapiens)
- Sequence (P53985 whole entry): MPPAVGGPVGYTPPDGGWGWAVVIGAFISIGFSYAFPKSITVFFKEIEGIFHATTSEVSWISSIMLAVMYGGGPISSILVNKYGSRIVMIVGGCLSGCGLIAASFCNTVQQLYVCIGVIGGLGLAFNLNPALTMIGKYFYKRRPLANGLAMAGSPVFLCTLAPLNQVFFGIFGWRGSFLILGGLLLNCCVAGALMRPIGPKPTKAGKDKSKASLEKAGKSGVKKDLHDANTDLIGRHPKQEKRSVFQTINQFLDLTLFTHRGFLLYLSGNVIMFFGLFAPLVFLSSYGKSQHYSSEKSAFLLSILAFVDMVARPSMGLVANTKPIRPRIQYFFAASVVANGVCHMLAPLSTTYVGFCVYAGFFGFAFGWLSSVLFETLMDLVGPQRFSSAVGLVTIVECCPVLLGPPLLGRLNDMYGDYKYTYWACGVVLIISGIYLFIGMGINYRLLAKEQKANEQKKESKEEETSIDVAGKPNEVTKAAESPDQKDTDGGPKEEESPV
- Sequence (P35613 140-385 partner limits assumed): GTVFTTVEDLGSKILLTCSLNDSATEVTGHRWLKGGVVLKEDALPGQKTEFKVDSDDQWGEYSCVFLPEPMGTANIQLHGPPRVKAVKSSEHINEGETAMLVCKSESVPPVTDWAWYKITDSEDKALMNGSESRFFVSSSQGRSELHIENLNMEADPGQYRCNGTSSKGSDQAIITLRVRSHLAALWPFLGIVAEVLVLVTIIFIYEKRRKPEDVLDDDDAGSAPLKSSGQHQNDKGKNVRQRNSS
- EXPERIMENT DESCRIPTION: Microscale thermophoresis (MST) direct binding
- SETUP CONDITIONS: purified hexahistidine-tagged MCT1/BSG complex, read-out: Kd, binding to MCT1/basigin

# COMPOUND, ENDPOINT UNIT, Kd
measured = [
    ("CC(C)OC(=O)Nc1ccc(-c2cnc([C@H]3CC[C@H](NC(=O)OC(C)C)CC3)s2)c(S(=O)(=O)NC(C)(C)C)c1 [Compound 67A]", "nM", 89),
]
